Reported melting point values for the following compounds.

| smiles.repr | melting point |
| --- | --- |
| CC(C)(C)c1ccc(C(=O)Nc2cn3cc(-c4cccnc4)ccc3n2)cn1 | 272 to 274 °C |
| CC(C)(C)c1ccc(C(=O)Nc2cn3nc(-c4cn[nH]c4)ccc3n2)cc1 | 358 to 362 °C (dec.) |
| CC(C)(C)c1ccc(C(=O)Nc2cn3c(ccc4ccccc43)n2)cc1 | 204 to 205 °C |
| CC(C)(C)c1ccc(C(=O)Nc2cn3nc(NCCO)ccc3n2)cc1 | 231 to 233 °C |
| CCOC(=O)CCC(C)(C)c1ccc(C(=O)Nc2cn3cc(C)ccc3n2)cc1 | 152 to 154 °C |
| COC(=O)C(C)(C)c1ccc(C(=O)Nc2cn3cc(Cl)ccc3n2)cc1 | 245 to 246 °C |
| CC(C)(C)c1ccc(C(=O)Nc2cn3cc(-c4cccs4)ccc3n2)cc1 | 273 to 275 °C |
| CC(C)(C)c1ccc(C(=O)Nc2cn3cc(-c4cnco4)ccc3n2)cn1 | 251 to 253 °C |
| CC(C)(CO)c1ccc(C(=O)Nc2cn3cc(-n4ccnc4)ccc3n2)cc1 | 278 to 280 °C |
